# Test system: P388 leukemia ip, CD2F1 mice, survival T/C
# measurement.notes: NCI In Vivo Anticancer Drug Screen. Data for tumor model P388 Leukemia (intraperitoneal) in CD2F1 (CDF1) mice
# condition.details: endpoint: median survival time; dose: 60.0 mg/kg/injection; schedule: Q01DX005 (ip); vehicle: saline with Tween-80; higher = longer survival
Toxic doses and inconclusive results are not listed.
measured.property: T/C

Below are worked cases with known answers.
| compound | T/C |
| --- | --- |
| CCN(Cc1ccccc1)C(=O)Nc1c(Cl)cccc1Cl | 92 % of control |
| O=[N+]([O-])/N=c1/nc2scc(-c3ccc([N+](=O)[O-])cc3)n2s1 | 106 % of control |
| O=C(Nc1cc2c3ccccc3ccc2c2ccccc12)C(Cl)Cl | 100 % of control |
| O=c1c2ccccc2c2nccn2c2ccccc12 | 90 % of control |

T/C lookup needed for Cc1c(-c2ccccc2)nnn1-c1ccc(F)cc1F , thanks.
101 % of control

Please answer likewise for O=[N+]([O-])c1ccccc1S(=O)(=O)N(CCCCN(S(=O)(=O)c1ccccc1[N+](=O)[O-])S(=O)(=O)c1ccccc1[N+](=O)[O-])S(=O)(=O)c1ccccc1[N+](=O)[O-]
93 % of control

Please answer likewise for Cc1ncc(CO)c(C2NCCS2)c1O (stereo not given)
100 % of control

Please answer likewise for CC(=O)c1ccc(N=C(C#N)C2=C(O)c3ccccc3C2=O)cc1
115 % of control

Please answer likewise for CC1CC(=O)Nc2nc(N)ncc21 (stereo not given)
102 % of control

Please answer likewise for COc1cc(C2c3cc4c(cc3OC(C)(O)C2C(C)=O)OCO4)cc(OC)c1O (stereo not given)
95 % of control

* * *

# Test system: P388 leukemia ip, CD2F1 mice, survival T/C
# measurement.notes: NCI In Vivo Anticancer Drug Screen. Data for tumor model P388 Leukemia (intraperitoneal) in CD2F1 (CDF1) mice
# condition.details: endpoint: median survival time; dose: 400.0 mg/kg/injection; schedule: Q04DX003 (ip); vehicle: saline with Tween-80; higher = longer survival
Toxic doses and inconclusive results are not listed.
measured.property: T/C

Below are worked cases with known answers.
| compound | T/C |
| --- | --- |
| OC1(c2ccccc2)c2ccccc2-c2ccccc21 | 104 % of control |
| CCCCNc1nc(SC)nc2nc[nH]c12 | 95 % of control |
| Cc1ccccc1-c1nc2c(N)nc(N)nc2nc1N | 113 % of control |
| Fc1ccc(Oc2ccc(F)cc2)cc1 | 109 % of control |
| CC(CC=O)CCCC(C)(C)O (stereo not drawn) | 100 % of control |
| S=c1nc[nH]c2c1ncn2C1C=CCCC1 (stereo not drawn) | 90 % of control |
| O=S(=O)(Nc1ccc(O)c(Cl)c1)c1ccccc1 | 100 % of control |
| Cc1ccnc(NCCCCCCNc2nccc(C)n2)n1 | 91 % of control |

T/C lookup needed for CC(C)(C)N1CC(C(=O)c2ccccc2)C1c1ccccc1 (stereo not drawn) , thanks.
97 % of control

Please answer likewise for CCOC(=O)c1[nH]cnc1/N=N/N(C)CCO
118 % of control

Please answer likewise for O=C1NC(=O)c2ncccc21
100 % of control

Please answer likewise for COC(=O)CCC(C)(c1ccc(O)cc1)c1ccc(O)cc1
90 % of control

* * *

# System: P388 leukemia ip, CD2F1 mice, survival T/C
# measurement.notes: NCI In Vivo Anticancer Drug Screen. Data for tumor model P388 Leukemia (intraperitoneal) in CD2F1 (CDF1) mice
# condition.details: endpoint: median survival time; dose: 50.0 mg/kg/injection; schedule: Q01DX005 (ip); vehicle: saline with Tween-80; higher = longer survival
Toxic doses and inconclusive results are not listed.
measured.property: T/C

Below are worked cases with known answers.
| molecule | T/C |
| --- | --- |
| O=C(O)C1CCCN1C(=O)c1cccc(Cl)c1 (stereo not given) | 94 % of control |
| CN(Cc1ccc2nc(N)[nH]c(=O)c2c1)c1ccc(C(=O)NC(CCC(=O)O)C(=O)O)cc1 (stereo not given) | 95 % of control |
| COC(=O)C12CCC(C(=O)OC)(CC1)n1c(=O)n(-c3ccccc3)c(=O)n12 | 102 % of control |

T/C lookup needed for O=C1CCC(=O)Nc2ccc3nc4ccccc4c(c3c2)SCCCCCCCCCCCCSc2c3ccccc3nc3ccc(cc23)N1 , thanks.
110 % of control

Please answer likewise for CSc1nc(NC2OC(COC(C)=O)C(OC(C)=O)C(OC(C)=O)C2OC(C)=O)c(C(=O)CCl)c(=O)n1C (stereo not given)
102 % of control

Please answer likewise for O=C1SCCC1n1c(=O)c1=O (stereo not given)
98 % of control

Please answer likewise for CCOC(=O)COc1ccc(CC)cc1Cc1ccc(OC)cc1
97 % of control

Please answer likewise for CC1(C)C2CCC1(CS(=O)O)C(=O)C2.[Ag] (stereo not given)
111 % of control

Please answer likewise for C1CCc2nc3c(nc2C1)CCCC3
101 % of control

Please answer likewise for CCOC(=O)c1c(-c2ccccc2)csc1NC(=O)CN1CCCCC1
98 % of control

Please answer likewise for Cc1ccc(SCC#CC#CCS(=O)c2ccc(C)cc2)cc1 (stereo not given)
110 % of control

* * *

Here, each record is paired with measured T/C data.
# System: P388 leukemia ip, CD2F1 mice, survival T/C
# measurement.notes: NCI In Vivo Anticancer Drug Screen. Data for tumor model P388 Leukemia (intraperitoneal) in CD2F1 (CDF1) mice
# condition.details: endpoint: median survival time; dose: 25.0 mg/kg/injection; schedule: Q04DX002 (ip); vehicle: saline with Tween-80; higher = longer survival
Toxic doses and inconclusive results are not listed.

| compound | measured.property | result |
| --- | --- | --- |
| CCN(CC)CCNc1cc(O)c2c(c1O)C(=O)c1ccccc1C2=O | T/C | 105 % of control |
| Nc1nc(-c2ccccc2)c(-c2ccccc2)n1C(=O)NCCCl | T/C | 113 % of control |
| Nc1cc2nnc(-c3ccccc3)c(-c3ccccc3)n2n1 | T/C | 91 % of control |
| CS(=O)(=O)N1C2CC3CCCCC3CC21 (stereo not drawn) | T/C | 99 % of control |

T/C lookup needed for C/C(=N\NC(N)=Nc1ccc(Cl)cc1)c1ccc(Cl)c(Cl)c1 , thanks.
99 % of control

Please answer likewise for COc1cc([C@H]2c3cc4c(cc3C[C@H]3COC(=O)[C@@H]32)OCO4)cc(OC)c1OC
86 % of control

Please answer likewise for NC(=O)c1c(N)ncnc1N
104 % of control

Please answer likewise for COCn1cc(C(N)=O)c(=O)c2c(N)nc(SC)nc21
96 % of control

* * *

# Tested on: P388 leukemia ip, CD2F1 mice, survival T/C
# measurement.notes: NCI In Vivo Anticancer Drug Screen. Data for tumor model P388 Leukemia (intraperitoneal) in CD2F1 (CDF1) mice
# condition.details: endpoint: median survival time; dose: 12.5 mg/kg/injection; schedule: Q01DX009 (ip); vehicle: saline with Tween-80; higher = longer survival
Inconclusive results and toxic doses are left out.
Here, each record is paired with measured T/C data.

| compound | T/C |
| --- | --- |
| C=C1C(=O)O[C@@H]2/C=C(\C)CC/C=C(/COC(C)=O)C[C@@H](OC(C)=O)[C@@H]12 | 103 % of control |
| OC(c1cc(-c2ccccc2)nc2c(Cl)cc(Cl)cc12)C1CCCCN1 (stereo unspecified) | 107 % of control |
| CC(C)CCSC1=CC(=O)c2ccccc2C1=O | 109 % of control |
| COc1ccc(/C=C/c2ccc3ccccc3[n+]2C)cc1 | 124 % of control |
| O=C(CCCN1CCC(C(=O)c2ccc(F)cc2)CC1)c1ccc(F)cc1 | 100 % of control |

T/C lookup needed for CCOC(=O)/C(C#N)=C/C=C1\C=CC=CN1C , thanks.
95 % of control

* * *

# Tested on: P388 leukemia ip, CD2F1 mice, survival T/C
# measurement.notes: NCI In Vivo Anticancer Drug Screen. Data for tumor model P388 Leukemia (intraperitoneal) in CD2F1 (CDF1) mice
# condition.details: endpoint: median survival time; dose: 25.0 mg/kg/injection; schedule: Q04DX003 (ip); vehicle: Klucel (hydroxypropylcellulose) (HPC)
Toxic doses and inconclusive results are not listed. How the source made its calls: active means survival T/C of 150% or more; inactive means T/C below 125% in these data.
Respond using exactly one of the listed classes: Yes (active), No (inactive)

Use these answered entries as a reference point.
| compound | class.name |
| --- | --- |
| CCc1nc(N)nc(N)c1-c1ccc(Cl)cc1.[O]=[Zn] | No |
| c1ccc(CCc2ccnc3c2ccc2ccccc23)cc1 | No |
| Cc1cc(C(C(N)=O)c2ccccc2)ccc1N(CCCl)CCCl (stereo not given) | Yes |

Which outcome did this test record for the compound CC1(C)CC(=O)C(CC2=C(N)CC(C)(C)CC2=O)=C(N)C1 ?
No

Please answer likewise for C/C(=N\NC(=S)N1CCC(C)CC1)c1ncccn1
No
